These data points were gathered from ChEMBL document CHEMBL3988442.

Percent Effect listing for selected molecules.
- Test system: Wolbachia pipientis
- procedure_text: Anti-Wolbachia Cell-Based Screen
- Assay type: functional
- Parameters: scale not given: in the data most compounds retested in dose-response had high values
- stated_conditions: 5 µM
Screen size: about 48,000 compounds; about 13,000 (27%) showed an effect of 50% or more. The list shows a part of the results.
observed_property: Percent Effect (%)

In [3]: df
Out[3]:
                                    molecule  observed_property  result_unit  result
 0  NC(=O)c1ccc(OCC(=O)N2CCCC(n3cccn3)C2)cc1 (centres undefined)     Percent Effect            %  -3.222
 1  O=S(=O)(c1cccs1)N1CCCCC1c1ccn[nH]1 (centres undefined)     Percent Effect            %   120.2
 2  CCN(CC)C(CNC(=O)CCc1nc(C(C)C)no1)c1ccco1 (centres undefined)     Percent Effect            %  -1.128
 3  NC(=O)c1cccc(OCC(=O)N2CCCC(n3ccnc3)C2)c1 (centres undefined)     Percent Effect            %     113
 4  CN(C)C(=O)N1Cc2ncn(C)c2C(COCC2CCOCC2)C1.O=C(O)C(F)(F)F (centres undefined)     Percent Effect            %    -8.2
 5  CCc1noc(C(C)N2CCN(CCN3CCCC3=O)CC2)n1 (centres undefined)     Percent Effect            %   113.9
 6                 CCSCCn1cc(-c2ncc[nH]2)nn1     Percent Effect            %   7.304
 7         O=c1nc(SCc2cccnc2)c2c(n1CCO)CCCC2     Percent Effect            %   8.765
 8             CN(Cc1cc(Br)cn1C)C(=O)c1cscn1     Percent Effect            %   4.085
 9      Cc1cc(CN2CCc3nn(C(C)C)c(=O)cc3C2)no1     Percent Effect            %   -4.35
10  CCOCCN1Cc2ncn(C)c2C(COCC2CCOCC2)C1.O=C(O)C(F)(F)F.O=C(O)C(F)(F)F (centres undefined)     Percent Effect            %  -3.886
11  CN(C)C(=O)COCC1CN(CC2CCOCC2)Cc2ncn(C)c21 (centres undefined)     Percent Effect            %   99.32
12                 Cc1c(C(=O)O)oc2ccc(I)cc12     Percent Effect            %   125.9
13  CC(=O)N1CCO[C@@H]2CN(Cc3cccc(Cl)c3)C[C@@H]2C1.O=C(O)C(F)(F)F     Percent Effect            %   105.7

* * *

- Tested on: Wolbachia pipientis
- procedure_text: Anti-Wolbachia Cell-Based Screen
- Assay type: functional
- Design: scale not given: in the data most compounds retested in dose-response had high values
- stated_conditions: 5 µM
The campaign covered roughly 48,000 compounds. About 13,000 (27%) showed an effect of 50% or more. The list shows a part of the results.
Here, each record is paired with measured Percent Effect data.
observed_property: Percent Effect

In [3]: df
Out[3]:
                                    compound      subject_of_test    result
 0        CSc1nc(C2CC2)nc(C)c1C(=O)NCc1ccco1  Wolbachia pipientis   -1.039%
 1  Cc1cc(C)n(-c2nc(C(=O)NCCN3CCC(C)CC3)cs2)n1  Wolbachia pipientis    74.92%
 2  CCc1nnc(C(C)N2CCN(CCC(=O)NC3CC3)CC2)o1 (centres undefined)  Wolbachia pipientis    108.9%
 3  Cc1noc(C2CCCCN2C(=O)C2CCN(C(C)C)CC2)n1 (centres undefined)  Wolbachia pipientis   -32.36%
 4                  CCOCCCNC(=O)c1cn(CC)nc1C  Wolbachia pipientis    9.774%
 5  O=C(NC[C@H]1O[C@H](Cc2cc(-c3ccccn3)on2)CC[C@@H]1O)C1CC1  Wolbachia pipientis   -6.652%
 6  CCS(=O)(=O)c1ccc(N2CCC(NC(=O)C3CCCCC3)CC2)cc1  Wolbachia pipientis    14.13%
 7  Cc1noc(C2CCCCN2C(=O)NCc2ccco2)n1 (centres undefined)  Wolbachia pipientis    91.67%
 8     CNc1cc(CCNC(=O)CC(C)C)nc(-c2ccccn2)n1  Wolbachia pipientis    101.5%
 9  COc1ncccc1C(=O)N1CCCC1c1nc(-c2ccccc2)no1 (centres undefined)  Wolbachia pipientis  -0.6104%
10  O=C(NCc1ccco1)N1CCCCC1c1nc(C2CC2)no1 (centres undefined)  Wolbachia pipientis    74.85%
11  CCc1nnc(C(C)N2CCN(CCC(C)(C)C)CC2)o1 (centres undefined)  Wolbachia pipientis    109.6%
12  CCc1nnc(C(C)N2CCC(NC(=O)C3CCCCC3)CC2)o1 (centres undefined)  Wolbachia pipientis    111.1%
13            Cc1nc(N(C)CCN(C)C)c2cnn(C)c2n1  Wolbachia pipientis    -4.82%
14  O=C(NCc1ccco1)C1CCCN1Cc1nc(-c2ccco2)no1 (centres undefined)  Wolbachia pipientis   -1.216%
15                 CCOCCCNc1nc2c(s1)c(C)nn2C  Wolbachia pipientis    6.024%
16   CNc1cc(CCNC(=O)c2cccnc2)nc(-c2ccncc2)n1  Wolbachia pipientis    -9.73%
17  CNC(=O)CCN1CCN(C(C)c2ccc(Cl)cc2)CC1 (centres undefined)  Wolbachia pipientis    7.005%
18  O=C(NCc1ccco1)N1CCCCC1c1nc(-c2ccncc2)no1 (centres undefined)  Wolbachia pipientis    87.86%

* * *

Quick reference for Percent Effect among some compounds
- Test system: Wolbachia pipientis
- procedure_text: Anti-Wolbachia Cell-Based Screen
- Type: functional
- Parameters: scale not given: in the data most compounds retested in dose-response had high values
- stated_conditions: 5 µM
The whole screen tested about 48,000 compounds, of which about 13,000 (27%) showed an effect of 50% or more. The list shows a part of the results.
observed_property: Percent Effect (%)

>>> print(df.to_string())
                                    compound  observed_property  result_unit  result
 0         CCNC(=O)Nc1cccc(F)c1C(=O)NC1CCCC1     Percent Effect            %   2.869
 1     CCc1nccn1CCCNC(=O)CN1CCN(c2ncccn2)CC1     Percent Effect            %  -11.95
 2  N#Cc1ccc(N2CCN(C(=O)c3cc(C4CC4)[nH]n3)CC2)c(F)c1     Percent Effect            %  -1.136
 3  O=C(N1CCCC1)N1C[C@@H]2CN(Cc3ccoc3)CCO[C@@H]2C1     Percent Effect            %   26.69
 4  Cc1c(NC(C)C(C)C)cccc1C(=O)NCc1cnn(C)c1 (stereo not given)     Percent Effect            %   6.886
 5  O=C(N1CCC(O)(C(F)(F)F)C1)C1(c2cccc(Cl)c2)CC1 (stereo not given)     Percent Effect            %  -4.685
 6  COc1ccc(CN2CC[C@@]3(O)CCCC[C@H]3C2)cc1C(=O)O     Percent Effect            %    -6.5
 7  CC(=O)NCCCSC1CCCN(c2ccccc2Cl)C1=O (stereo not given)     Percent Effect            %   1.649
 8      O=C(c1cnccn1)N1CCn2cnc(COCC3CC3)c2C1     Percent Effect            %  -16.54
 9    CCc1nccn1CCCNC(=O)c1cnn(-c2ccccc2OC)c1     Percent Effect            %   86.43
10  Cc1cccc(CN2CCN(C(=O)c3cc(C4CC4)[nH]n3)CC2)c1     Percent Effect            %   106.2
11  O=C(c1cc(C2CC2)[nH]n1)N1CCN(Cc2ccccc2)CC1     Percent Effect            %   113.8
12  O=C(C1CC(F)(F)C1)N1C[C@@H]2CN(Cc3ccsc3)CCO[C@@H]2C1.O=C(O)C(F)(F)F     Percent Effect            %   8.794
13  O=C(Nc1cccc(OC(F)F)c1)C1CN(S(=O)(=O)C2CC2)C1     Percent Effect            %   10.08
14  O=C(c1cc(C2CC2)[nH]n1)N1CCN(Cc2ccsc2)CC1     Percent Effect            %  -9.211

* * *

- Tested on: Wolbachia pipientis
- procedure_text: Anti-Wolbachia Cell-Based Screen
- Assay type: functional
- Parameters: scale not given: in the data most compounds retested in dose-response had high values
- stated_conditions: 5 µM
Screen size: about 48,000 compounds; about 13,000 (27%) showed an effect of 50% or more. Some of the results follow.
observed_property: Percent Effect (%)

>>> df
                            smiles_notation  observed_property  result
0           CC(=O)Oc1ccnc(C(F)(F)F)c1C(C)=O     Percent Effect   6.517
1  CNC(=O)C1(N2CCC[C@H]2C(=O)NC2CCOCC2)CCOCC1.Cl     Percent Effect  -3.696
2  CCN(C)C[C@@H]1CN(Cc2cccc(O)c2)C[C@@H]1CO     Percent Effect  -2.333
